Test system: NUK-21 strain
Format: cell-based, Myrmecridium flexuosum NUK-21
Settings: metal ions 0.01%, 4% wheat bran medium, 30° C., 4 days
Reported Enzyme activity by item:
recorded-metric: Enzyme activity (unit/ml)

molecule: O=S(=O)([O-])[O-].O=S(=O)([O-])[O-].O=S(=O)([O-])[O-].[Fe+3].[Fe+3] [Fe2(SO4)3]
endpoint-value: 0.25
--
molecule: O=S(=O)([O-])[O-].[Zn+2]
endpoint-value: 0.22
--
molecule: [Cl][Fe]([Cl])[Cl]
endpoint-value: 0.27
--
molecule: [Cl][Sn]([Cl])([Cl])[Cl]
endpoint-value: 0.32
--
molecule: O=S(=O)([O-])[O-].[Mn+2]
endpoint-value: 0.37
--
molecule: [Cl][Hg][Cl]
endpoint-value: 0.02
--
molecule: O=S(=O)([O-])[O-].[Cu+2]
endpoint-value: 0.61
--
molecule: [Ca+2].[Cl-].[Cl-]
endpoint-value: 0.20
--
molecule: O=[N+]([O-])[O-].[Ag+]
endpoint-value: 0.28
